# target_or_test_system: Melanocortin receptor 4 (Homo sapiens)
# Sequence (P32245 whole entry): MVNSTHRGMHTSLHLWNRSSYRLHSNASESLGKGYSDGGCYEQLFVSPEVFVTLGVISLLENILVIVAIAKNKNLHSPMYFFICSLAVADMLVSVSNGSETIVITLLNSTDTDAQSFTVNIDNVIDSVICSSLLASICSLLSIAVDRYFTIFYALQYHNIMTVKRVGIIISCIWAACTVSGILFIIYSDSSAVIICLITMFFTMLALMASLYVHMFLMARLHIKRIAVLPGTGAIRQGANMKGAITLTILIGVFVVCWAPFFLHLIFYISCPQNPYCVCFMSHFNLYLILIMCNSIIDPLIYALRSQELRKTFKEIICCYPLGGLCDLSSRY
# measurement_notes: Displacement of [125I]NDP-MSH from human recombinant MC4 receptor expressed in Sf9 cells
outcome_measure: pKi
By convention, pKi is the negative base-10 log of a molar concentration.

// query pKi value for entry C/C(=C\c1ccccc1)CN(CCCN)C(=O)Cc1c[nH]c2ccccc12
4.17

// query pKi value for entry NCCCN(Cc1ccc2ccccc2c1)C(=O)Cc1c[nH]c2ccccc12
3.79

// query pKi value for entry NCCN(C(=O)COc1ccc2ccccc2c1)C1CCC2(CCCCC2)CC1
5.31

// query pKi value for entry NCCCN1CCN(CCCN(C/C(Cl)=C/c2ccccc2)C(=O)CCCc2c[nH]c3ccccc23)CC1
5.04

// query pKi value for entry NCCCCN(Cc1ccc2ccccc2c1)C(=O)Cc1c[nH]c2ccccc12
3.95

// query pKi value for entry COc1ccccc1/C=C/CN(C(=O)CCCc1c[nH]c2ccccc12)C1CCC(CC2CCC(N)CC2)CC1 (stereo in doubt; form 2)
5.39

// query pKi value for entry CC(C)N(CCCCN)C(=O)c1c(Cc2ccc(O)cc2)[nH]c2ccccc12
3.78

// query pKi value for entry N=C(N)NCCN(Cc1ccc2ccccc2c1)C(=O)CCCc1c[nH]c2ccccc12
3.75

// query pKi value for entry NCCCCCN(Cc1ccc2ccccc2c1)C(=O)CCCc1c[nH]c2ccccc12
4.92

----------
Provide the recorded pKi for the entries that follow.
# target_or_test_system: Melanocortin receptor 5 (Homo sapiens)
# Sequence (P33032 whole entry): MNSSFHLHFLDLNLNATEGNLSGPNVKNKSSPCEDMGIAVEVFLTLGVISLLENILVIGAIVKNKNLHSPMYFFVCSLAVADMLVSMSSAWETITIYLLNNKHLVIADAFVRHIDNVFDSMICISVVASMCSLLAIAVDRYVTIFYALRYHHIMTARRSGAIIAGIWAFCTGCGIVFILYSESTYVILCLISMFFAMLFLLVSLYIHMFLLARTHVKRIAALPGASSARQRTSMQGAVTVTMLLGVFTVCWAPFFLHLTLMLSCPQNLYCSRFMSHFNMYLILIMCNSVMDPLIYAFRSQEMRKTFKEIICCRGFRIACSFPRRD
# measurement_notes: Displacement of [125I]NDP-MSH from human recombinant MC5 receptor expressed in Sf9 cells
By convention, pKi is the negative base-10 log of a molar concentration.

// fetch Melanocortin receptor 5 (Homo sapiens) pKi for COc1cc(O)ccc1/C=C/CN(C(=O)CCCc1c[nH]c2ccccc12)C1CCC(CC2CCC(N)CC2)CC1 (stereo in doubt; form 1)
5.12

// fetch Melanocortin receptor 5 (Homo sapiens) pKi for NCCCCCN(C/C=C\c1ccccc1)C(=O)CCCc1c[nH]c2ccccc12
5.66

// fetch Melanocortin receptor 5 (Homo sapiens) pKi for NCCCCCN(C/C(Cl)=C\c1ccccc1)C(=O)/C=C/c1c[nH]c2ccccc12
5.27

// fetch Melanocortin receptor 5 (Homo sapiens) pKi for N=C(N)NC1CCC(CC2CCC(N(C/C(Cl)=C/c3ccccc3)C(=O)CCCc3c[nH]c4ccccc34)CC2)CC1 (stereo in doubt; form 1)
4.62

----------
# target_or_test_system: Melanocyte-stimulating hormone receptor (Mus musculus)
# Sequence (Q01727 whole entry): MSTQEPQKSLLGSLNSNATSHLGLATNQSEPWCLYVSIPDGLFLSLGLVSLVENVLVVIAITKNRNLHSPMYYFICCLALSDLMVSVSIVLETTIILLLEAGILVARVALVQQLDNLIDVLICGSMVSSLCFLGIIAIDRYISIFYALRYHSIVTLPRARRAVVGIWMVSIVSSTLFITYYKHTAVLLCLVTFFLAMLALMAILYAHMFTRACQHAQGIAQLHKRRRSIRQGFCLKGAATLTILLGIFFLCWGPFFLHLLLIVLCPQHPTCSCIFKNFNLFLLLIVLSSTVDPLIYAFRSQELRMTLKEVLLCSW
# measurement_notes: Displacement of [125I]NDP-MSH from MC1 receptor in mouse B16 cells
# Format: cell-based
Provide the recorded pKi for the entries that follow.
By convention, pKi is the negative base-10 log of a molar concentration.

// fetch Melanocyte-stimulating hormone receptor (Mus musculus) pKi for COc1cc(Br)c(/C=C/CN(C(=O)CCCc2c[nH]c3ccccc23)C2CCC(CC3CCC(N)CC3)CC2)cc1OC (stereo not drawn)
5.70

// fetch Melanocyte-stimulating hormone receptor (Mus musculus) pKi for COc1ccc(CN(C(=O)CCCc2c[nH]c3ccccc23)C2CCC(CC3CCC(N)CC3)CC2)cc1OC (stereo not drawn)
5.49

// fetch Melanocyte-stimulating hormone receptor (Mus musculus) pKi for COc1cc(O)ccc1/C=C/CN(C(=O)CCCc1c[nH]c2ccccc12)C1CCC(CC2CCC(N)CC2)CC1 (stereo in doubt; form 2)
5.48

// fetch Melanocyte-stimulating hormone receptor (Mus musculus) pKi for NCCCCCN(Cc1ccccc1)C(=O)[C@H](N)Cc1c[nH]c2ccccc12
4.49

// fetch Melanocyte-stimulating hormone receptor (Mus musculus) pKi for NCCCCN(C/C=C/c1ccccc1)C(=O)CCc1c[nH]c2ccccc12
5.08

// fetch Melanocyte-stimulating hormone receptor (Mus musculus) pKi for N#Cc1ccc(CN(C(=O)CCCc2c[nH]c3ccccc23)C2CCC(CC3CCC(N)CC3)CC2)cc1 (stereo in doubt; form 1)
5.80

// fetch Melanocyte-stimulating hormone receptor (Mus musculus) pKi for NC1CCC(CC2CCC(N(C/C(Cl)=C/c3ccccc3)C(=O)COc3ccc4ccccc4c3)CC2)CC1 (stereo in doubt; form 1)
5.72

// fetch Melanocyte-stimulating hormone receptor (Mus musculus) pKi for C=C(Br)CN(C(=O)CCCc1c[nH]c2ccccc12)C1CCC(CC2CCC(N)CC2)CC1 (stereo in doubt; form 4)
6.09
